Provenance of the data: patent US5521315A

# Tested on: CMV promoter activity in transformed (adenovirus) cells
# protocol_summary: CMV promoter assay (gene transcription and translation; cytotoxicity in transformed cells)
# Type: cell-based
For each of the molecules below, state its pIC50.
Give bare numbers, as −log10 of the molar value.

>>> df
                                   molecule  recorded_measurement
0  CC(C)=CCC/C(C)=C/Cn1c(=O)c2c(ncn2C)n(C)c1=O [CT2545, 1-(Geranyl)-3,7-dimethylxanthine]                  4.12
1  CCCCC/C=C\C/C=C\CCCCCCCCn1c(=O)c2c(ncn2C)n(C)c1=O [CT1524]                  4.30
2  C=CCCCCCCCn1c(=O)ccn(C)c1=O [CT1817, 3-(8-nonenyl)1-methyluracil]                  3.60
3  C=CCCCCCCCCCn1c(=O)c2c(ncn2C)n(C)c1=O [CT2501, 1-(10-undecenyl)-3,7-dimethylxanthine]                  3.70

List reported pIC50 for each of these molecules:
1. CC/C=C/CCCCCn1c(=O)c2c(ncn2C)n(C)c1=O [CT2512, 1-(6-trans-nonenyl)-3,7-dimethylxanthine]
2. CC(C)=CCC[C@@H](C)CCCn1c(=O)c2c(ncn2C)n(C)c1=O [CT2536R]

[4.30, 4.52]

For every item below, please supply its pIC50.
1. CC(C)=CCCC(C)=CCCC(C)=CCn1c(=O)c2c(ncn2C)n(C)c1=O [CT2544, 1-(Farnesyl)-3,7-dimethylxanthine]
2. CC/C=C\CCCCCn1c(=O)c2c(ncn2C)n(C)c1=O [CT1508, 1-(6-cis-nonenyl)-3,7-dimethylxanthine]
3. C=CCCCCCCCCCn1c(=O)c2[nH]cnc2n(C)c1=O [CT1406, 1-(10-undecenyl)-3-methylxanthine]
4. CC(C)=CCC[C@H](C)CCCn1c(=O)c2c(ncn2C)n(C)c1=O [CT2536S]
5. C=CCCCCCCCn1c(=O)c2c(ncn2C)n(C)c1=O [CT1550, 1-(8-nonenyl)-3,7-dimethylxanthine]

1: 4.70; 2: 4.12; 3: 4.22; 4: 4.52; 5: 4.12

Batch: pIC50 for all items listed.
1. CC/C=C\CCCCCn1c(=O)c(C)cn(C)c1=O [CT1916, 3-(6-cis-nonenyl)-1-methylthymine]
2. C=CCCCCCCCn1c(=O)c2[nH]cnc2n(C)c1=O [CT1405, 1-(8-nonenyl)-3-methylxanthine]
3. CC(C)=CCC[C@H](C)CCn1c(=O)c2c(ncn2C)n(C)c1=O [CT1596S]
4. C=CCn1c(=O)c2c(ncn2C)n(C)c1=O [CT1531, 1-(2-propenyl)-3,7-dimethylxanthine]

1: 3.60; 2: 4.00; 3: 4.40; 4: 4.30

For each entry beneath this line, provide reported pIC50.
1. CC/C=C\CCCCCn1c(=O)ccn(C)c1=O [CT1814, 3-(6-cis-nonenyl)1-methyluracil]
2. C=CCCCCCCCN1C(=O)c2ccccc2C1=O [CT1102, N(8-nonenyl)phthalimide]
3. C=CCCCCCCCn1c(=O)c(C)cn(C)c1=O [CT1917, 3-(8-nonenyl)-1-methylthymine]
4. C=CCCCCCCCN1C(=O)CCCC1=O [CT1604, N-(8-nonenyl)glutarimide]
5. C=CCCCCCCCCn1c(=O)c2c(ncn2C)n(C)c1=O [CT1563, 1-(9-Decenyl)-3,7-dimethylxanthine]

4.00
3.76
4.12
4.00
4.30

Item C=CCCCCN1C(=O)c2ccccc2C1=O [CT1101, N(5-hexenyl)phthalimide] has what recorded pIC50? 3.60
